- measurement protocol: Tmax in Sprague-Dawley rat at 1 mg/kg, iv by LC-MS/MS analysis
- Assay type: ADME, organism-based
- measurement context: in vivo
experimental readout: Tmax (h)

In [3]: df
Out[3]:
                               smiles_input  experimental_readout  reading
0  COc1cc2nccc(Oc3ccc(NC(=O)Cc4ccc(Cl)c(C(F)(F)F)c4)cc3)c2cc1OC                  Tmax        0

---

- measurement protocol: AUC (0 to t) in Sprague-Dawley rat at 10 mg/kg, po by LC-MS/MS analysis
- Assay type: ADME, organism-based
- measurement context: in vivo
experimental readout: AUC(0-t)

>>> df
                               smiles_input  experimental_readout        reading
0  COc1cc2nccc(Oc3ccc(NC(=O)Cc4ccc(Cl)c(C(F)(F)F)c4)cc3)c2cc1OC              AUC(0-t)  25100 ng·h/mL
